- Study target: reverse transcriptase of the HIV 1 virus (Human immunodeficiency virus type 1 group M subtype B, UniProt P04585)
- Construct: Action on Reverse Transcriptase of the HIV 1 Virus; made in house; host or cells: HIV 1 virus grown on CEM cells; virus pelleted from the culture medium and resuspended in Triton X 100 (viral lysate, not recombinant)
- Test summary: Action on reverse transcriptase of the HIV 1 virus (3H thymidine triphosphate incorporation)
- Format: biochemical
- Conditions: 50% inhibition (Di50) of HIV 1 reverse transcriptase, 37° C., 1 hour
Result type: pIC50
Entry type: numeric. Quantity: pIC50, the -log10 of concentration in molar units.

query: Name the reported pIC50 value associated with the compound O=C(O)P(=O)(O)O [phosphonoformate]
result: 6.00
